From: patent US20250297026A1

Measured ADCC EC50, listed per entry for reference.
system: T1, canine CD20 (canine, UniProt Q3C2E2 1-297)
T1 chain: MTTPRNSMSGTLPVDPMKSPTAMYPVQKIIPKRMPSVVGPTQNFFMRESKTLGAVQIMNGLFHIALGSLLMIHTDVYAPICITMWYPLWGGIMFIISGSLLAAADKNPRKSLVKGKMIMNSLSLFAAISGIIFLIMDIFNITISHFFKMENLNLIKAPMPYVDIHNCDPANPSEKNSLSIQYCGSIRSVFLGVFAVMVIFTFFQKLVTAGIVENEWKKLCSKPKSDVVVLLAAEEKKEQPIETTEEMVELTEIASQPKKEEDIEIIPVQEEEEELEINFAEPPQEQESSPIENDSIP
assay_text: cell-based or functional assay
Expressed in nM, but write only the number.

PMX079 (antibody, V domains shown) VH: EVQLVESGGDLVKPGGSLRLSCVASGLTFSRYHMSWVRQAPGKGLQWVAFINSGRSDTTYADAVKGRFTISRDNAKNTLYLQMNSLRAEDTAVYYCTTFDYWGQGTLVTVSS VL: SYVLTQLPSKNVTLKQPAHITCGGDNIGSKSVHWYQQKLGQAPALIIYYDSSRPTGIPERFSGANSGNTATLTISGALAEDEADYYCQVWDSSANVFGGGTHLTVL : 0.12

Can you share its ADCC EC50? I mean this binder: PMX078 (antibody, V domains shown) VH: EVQLVESGGDLVKPGGSLRLSCVASGLTFSRYHMSWIRQAPGKGLQWVAYISSGGSSTNYAGSVKGRFTVSRDNAKNTLYLQMNSLRAEDTAVYYCTSLDYWGQGTLVTVSS VL: SYVLTQLPSKNVTLKQPAHITCGGDNIGSKSVHWYQQKLGQAPVLIIYYDSRRPTGIPERFSGANSGNTATLTISGALAEDEADYYCQVWDSSDNVFGGGTHLTVL
0.22

Proceed to PMX067 (antibody, V domains shown) VH: EIQLVESGGDLVKPGGSLRLSCVASGFTFSRYHMSWVRQAPGKGLQWVAYINTGGSNTNYADAVKGRFTISRDNAKNTLYLQMNSLRAEDTAVYYCTTLDSWGQGTLVTVSS VL: SYVLTQLPFKNVTLKQPAHITCGGDNIGSKSVHWYQQKLGQAPVLIIYYDSRRPTGIPERFSGANSGNTATLTISGALAEDEADYYCQVWDSSVNVFGGGTHLTVL
0.13
